Attribute: LEC (lowest effect concentration), larval growth assay
- Tested on: Caenorhabditis elegans (Bristol N2)
- Applied Conditions: Bristol N2 (wild type), Caenorhabditis elegans, in vivo
Property Name: LEC (lowest effect concentration), larval growth assay

# Compound, Result
records = [
    ("CC[C@@H](C(=O)[C@@H](C)[C@@H](O)[C@H](C)CCc1ccc(C)c(O)c1C(=O)O)[C@H]1O[C@](CC)([C@H]2CC[C@](O)(CC)[C@H](C)O2)C[C@@H]1C [Lasalocid sodium, reference compound]", "≤ 10 µM"),
    ("O=C(Nc1ccc(Oc2ccc(Cl)cc2)c(Cl)c1)c1cc(I)cc(I)c1O [Rafoxanide, reference compound]", "≤ 10 µM"),
    ("O=C1c2ccccc2C(=O)C1C(=O)C(c1ccccc1)c1ccc(Cl)cc1 (centres unmarked)", "< 10 µM"),
    ("C=C(c1ccc(C(=O)O)cc1)c1cc2c(cc1C)C(C)(C)CCC2(C)C [Bexarotene, reference compound]", "≤ 10 µM"),
    ("CC(C)(C)c1cc([N+](=O)[O-])cc([N+](=O)[O-])c1O", "< 10 µM"),
]
